Target: T1, IL-23 receptor on the surface of HEK-Blue IL-23 cells (UniProt Q5VWK5 24-629, limits assumed)
T1 sequence (looked up): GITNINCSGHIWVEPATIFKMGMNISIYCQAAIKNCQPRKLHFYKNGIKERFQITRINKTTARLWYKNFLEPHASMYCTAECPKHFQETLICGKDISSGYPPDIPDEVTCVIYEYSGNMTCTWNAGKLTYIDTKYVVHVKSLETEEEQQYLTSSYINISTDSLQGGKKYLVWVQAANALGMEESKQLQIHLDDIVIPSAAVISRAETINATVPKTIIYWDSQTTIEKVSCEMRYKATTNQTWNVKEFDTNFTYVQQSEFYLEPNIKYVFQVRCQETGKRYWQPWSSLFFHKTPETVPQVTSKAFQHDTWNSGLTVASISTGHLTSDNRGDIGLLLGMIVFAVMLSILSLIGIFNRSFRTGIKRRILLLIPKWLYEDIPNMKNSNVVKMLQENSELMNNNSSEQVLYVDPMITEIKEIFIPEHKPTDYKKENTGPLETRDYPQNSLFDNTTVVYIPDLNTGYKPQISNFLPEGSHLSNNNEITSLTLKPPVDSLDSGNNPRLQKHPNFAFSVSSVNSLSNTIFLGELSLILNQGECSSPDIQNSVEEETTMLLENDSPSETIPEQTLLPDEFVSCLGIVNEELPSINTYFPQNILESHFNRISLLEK
Experiment: cell-based or functional assay
Starred links: 1 amine or outer side, 2 acyl side, 3 side chain; linkers in the order of their positions; H or OH if unused. Positions of bridges follow the written chain, without caps; N, C: chain ends. Non-standard residues stand in square brackets, D forms with d. Yde = (2S)-2-amino-3-[4-[2-(dimethylamino)ethoxy]phenyl]propanoic acid, CN(C)CCOc1ccc(C[C@H](N[*:1])C(=O)[*:2])cc1; Phe(4-OMe) = COc1ccc(C[C@H](N[*:1])C(=O)[*:2])cc1; Trp(7-Me) = Cc1cccc2c(C[C@H](N)C(=O)O)c[nH]c12; 2Nal = N[C@@H](Cc1ccc2ccccc2c1)C(=O)O; εLys = N[C@@H](CCCCN[*:1])C(=O)[*:2]; 3Pal = N[C@@H](Cc1cccnc1)C(=O)O; Aib = CC(C)(N)C(=O)O; Ava = NCCCCC(=O)O; Sar = CNCC(=O)O
Let's look at some binders and their measured pSTAT3 (nM).
Express the result in nM but write the number alone.

{"binder": "[Ava]CNTWQC[Phe(4-OMe)][2Nal][Aib]ENN-NH2 (lactam N-11; disulfide 2-7; SMILES COc1ccc(C[C@@H]2NC(=O)[C@@H]3CSSC[C@H](NC(=O)CCCCNC(=O)CC[C@@H](C(=O)N[C@@H](CC(N)=O)C(=O)N[C@@H](CC(N)=O)C(N)=O)NC(=O)C(C)(C)NC(=O)[C@H](Cc4ccc5ccccc5c4)NC2=O)C(=O)N[C@@H](CC(N)=O)C(=O)N[C@@H]([C@@H](C)O)C(=O)N[C@@H](Cc2c[nH]c4ccccc24)C(=O)N[C@@H](CCC(N)=O)C(=O)N3)cc1) [Compound of SEQ ID NO: 1]", "unit-name": "nM", "pSTAT3 (nM)": 18.5}

Enquiry: Retrieve pSTAT3 (nM) measured for [Ava]C[εLys](Ac)[Trp(7-Me)]K(Ac)C[Yde][2Nal][Aib]EN[3Pal][Sar]-NH2 (lactam N-10; disulfide 2-6; also: Cys2 carboxyl joined to epsilon-NH2 of Lys3 (isopeptide bond), Lys3 alpha-N acetylated) [Compound of SEQ ID NO: 72] and print it.
Return: 0.12
